Form field: aptazyme ON/OFF ratio (one value per entry).
B1: Pistol ribozyme (parent)
chain: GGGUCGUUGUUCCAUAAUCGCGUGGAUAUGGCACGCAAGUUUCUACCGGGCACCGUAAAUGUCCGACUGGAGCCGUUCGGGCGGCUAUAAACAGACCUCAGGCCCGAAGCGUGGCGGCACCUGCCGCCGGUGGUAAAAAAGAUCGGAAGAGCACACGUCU

Variants of: B1
Test: aptazyme ON/OFF ratio, guanine; higher = stronger switching; co-transcriptional cleavage with and without guanine
experimentalEndpoint: aptazyme ON/OFF ratio

[[record]]
mutationstring = "G9A U10C C12U C13U"
experimentalendpoint = "aptazyme ON/OFF ratio"
valuereported = 1.34

[[record]]
mutationstring = "U8A G9C U10C U11C C12A C13G"
experimentalendpoint = "aptazyme ON/OFF ratio"
valuereported = 1.01

[[record]]
mutationstring = "U7A U8G U10G U11G C12U"
experimentalendpoint = "aptazyme ON/OFF ratio"
valuereported = 1.42

[[record]]
mutationstring = "G9A U10A U11C C12A C13U"
experimentalendpoint = "aptazyme ON/OFF ratio"
valuereported = 1.41

[[record]]
mutationstring = "U7G U8A U10A"
experimentalendpoint = "aptazyme ON/OFF ratio"
valuereported = 1.35

[[record]]
mutationstring = "U7C G9A U11A C12U C13U"
experimentalendpoint = "aptazyme ON/OFF ratio"
valuereported = 1.3

[[record]]
mutationstring = "U7A U8A G9U U10C U11C C12G C13U"
experimentalendpoint = "aptazyme ON/OFF ratio"
valuereported = 1.04

[[record]]
mutationstring = "U7G G9U U10G U11A C12U C13A"
experimentalendpoint = "aptazyme ON/OFF ratio"
valuereported = 1.17

[[record]]
mutationstring = "U8C G9A U10G U11A C12A C13A"
experimentalendpoint = "aptazyme ON/OFF ratio"
valuereported = 1.14

[[record]]
mutationstring = "U7G U8A U11C C13U"
experimentalendpoint = "aptazyme ON/OFF ratio"
valuereported = 1.2

[[record]]
mutationstring = "U7G U8G G9A U10C U11G C12G C13A"
experimentalendpoint = "aptazyme ON/OFF ratio"
valuereported = 1.1

